Source: patent US20250304560A1

system: IL-6; assay: IL-6 AlphaLISA in LPS-primed THP1 macrophages; conditions: Homo sapiens, THP-1, read-out: IL-6 Activity (μM), THP1 macrophages, PMA, LPS priming, nigericin 6.7 uM
readout.label: IC50

These solved cases illustrate the format of a correct answer.
[[record]]
molecule = "Cc1cc(-c2ccc(F)cc2O)nnc1N[C@@H]1CCCN(CCF)C1 [compound 86]"
readout_label = "IC50"
value_observed = "> 10 µM"

[[record]]
molecule = "Cc1cc(N[C@@H]2CCN(C)C2)nnc1-c1ccc(C(F)(F)F)cc1O [compound 96]"
readout_label = "IC50"
value_observed = "> 10 µM"

[[record]]
molecule = "Cc1cc(N[C@@H]2CC[C@@H](C(=O)O)N(C)C2)nnc1-c1ccccc1O [compound 95]"
readout_label = "IC50"
value_observed = "> 10 µM"


Fill in IC50 for each of the 6 molecules listed.
1. Cc1cc(-c2c(C)cccc2O)nnc1N[C@@H]1CCCN(C)C1 [compound 78]
2. Cc1cc(N[C@@H]2CCCN(C)C2)nnc1-c1c(C)cccc1O [compound 69]
3. Cc1cc(-c2ccc(F)cc2O)nnc1N[C@@H]1CCCN(C)C1 [compound 77]
4. Cc1cc(-c2nnc(N(C)[C@@H]3CCCN(C)C3)cc2C)c(O)cc1F [compound 66]
5. Cc1cc(-c2ccc(F)c(C)c2O)nnc1N[C@@H]1CCCN(C)C1 [compound 80]
6. Cc1cc(-c2c(C)cc(F)cc2O)nnc1N[C@@H]1CCCN(C)C1 [compound 84]

**A:**
> 10 µM
5 to 10 µM
> 10 µM
5 to 10 µM
5 to 10 µM
> 10 µM

Fill in IC50 for each of the 4 molecules listed.
1. Cc1ccc(O)c(-c2nnc(N[C@@H]3CCCN(C)C3)cc2C)c1 [compound 68]
2. Cc1cc(N[C@@H]2CCCN(C)C2)nnc1-c1cccc(C)c1O [compound 67]
3. CN1CCC[C@@H](N(C)c2ccc(-c3ccc(F)cc3O)nn2)C1 [compound 20]
4. Cc1cc(-c2cccc(C)c2O)nnc1N[C@@H]1CCCN(C)C1 [compound 81]

**A:**
["> 10 µM", "5 to 10 µM", "5 to 10 µM", "> 10 µM"]

Fill in IC50 for each of the 2 molecules listed.
1. Cc1cc(N[C@@H]2CC[C@@H](C(=O)O)NC2)nnc1-c1ccccc1O [compound 94]
2. CCc1ccc(-c2ccc(N(C)[C@@H]3CCCN(C)C3)nn2)c(O)c1 [compound 27]

**A:**
1. > 10 µM
2. > 10 µM

Fill in IC50 for each of the 2 molecules listed.
1. Cc1cc(N[C@@H]2CCCN(C)C2)nnc1-c1ccc(C2CC2)cc1O [compound 3]
2. CCN1CCC[C@@H](Nc2ccc(-c3c(C)cc(F)cc3O)nn2)C1 [compound 60]

**A:**
5 to 10 µM
> 10 µM
